Entry source: the supplement of paper PMC11208160

Experiment: recombinant UMI read abundance after kanamycin selection (control-corrected) (log10(CPM+1)); higher = more efficient recombination; extreme values may be limits of the assay; sequences stand for … in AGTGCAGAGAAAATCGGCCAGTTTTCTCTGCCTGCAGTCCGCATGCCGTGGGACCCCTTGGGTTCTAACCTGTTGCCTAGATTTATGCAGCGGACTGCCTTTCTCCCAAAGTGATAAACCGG…AGGTTGGTTTCACT; site = the 11-nt donor
Kind request: treat 0.002 as inclusive, so recombinant UMI read abundance (log10) at 0.002 or higher is 1, anything lower is 0.

The following sequences have reported results that may help.
{"columns": ["entry.sequence", "class"],
 "data": [
  ["CCGCCAACATGGACCGGTTTTCCCGGTAATCCGTATTTGAG (site CCGCCAACTCT)", 1],
  ["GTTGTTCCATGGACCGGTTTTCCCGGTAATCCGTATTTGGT (site GTAGTTCCTAC)", 1],
  ["GGAGGTACATGGACCGGTTTTCCCGGTAATCCGTATTTGCG (site GGAGGTACTCG)", 1],
  ["AAGCCCGCATGGACCGGTTTTCCCGGTAATCCGTATTTGGG (site AAGCACGCTCC)", 1],
  ["CAGTTGGCATGGACCGGTTTTCCCGGTAATCCGTATTTGGA (site CACTTGGCTTC)", 1],
  ["CACATGACATGGACCGGTTTTCCCGGTAATCCGTATTTGGA (site CACATGACTTC)", 1],
  ["GCCAGGCCATGGACCGGTTTTCCCGGTAATCCGTATTTGTA (site GCCAAGCCTTA)", 1],
  ["TTCGCTGCATGGACCGGTTTTCCCGGTAATCCGTATTTGGG (site TTCGCTGCTCC)", 1],
  ["ACATGTACATGGACCGGTTTTCCCGGTAATCCGTATTTGGT (site ACATGTACTAC)", 1],
  ["CTACTAACATGGACCGGTTTTCCCGGTAATCCGTATTTGGG (site CTACTAACTAC)", 1]
]}

Could you verify whether the entry ACCTTCTCATGGACCGGTTTTCCCGGTAATCCGTATTTGGG (site TCCTTCTCTCC) shows recombinant UMI read abundance (log10) of no less than 0.002? 1

Could you verify whether the entry CCGAATCCATGGACCGGTTTTCCCGGTAATCCGTATTTGCT (site CGGAATCCTAA) shows recombinant UMI read abundance (log10) of no less than 0.002? 0

Could you verify whether the entry GATCAAACATGGACCGGTTTTCCCGGTAATCCGTATTTGAA (site GATCAAACTTT) shows recombinant UMI read abundance (log10) of no less than 0.002? 0

====

Experiment: recombinant barcode read abundance after kanamycin selection (control-corrected) (log10(CPM+1)); higher = more efficient recombination; sequences stand for … in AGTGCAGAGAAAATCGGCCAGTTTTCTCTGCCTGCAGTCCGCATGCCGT…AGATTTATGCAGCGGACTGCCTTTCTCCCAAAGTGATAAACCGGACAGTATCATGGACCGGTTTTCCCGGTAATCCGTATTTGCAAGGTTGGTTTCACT; site = the 11-nt target
property: recombinant barcode read abundance (log10)
Give only the figure.

Known recombinant barcode read abundance (log10) results, listed for orientation:
{"columns": ["entry.sequence", "number"],
 "data": [
  ["TGTGCGGCTTGGGTTCTAACCTGTTGCCT (site AGTGCGGCTAG)", 0.0331],
  ["AGGCGTCCTTGGGTTCTAACCTGTTGCCG (site AGGCGTCCTCG)", 1.24],
  ["ACACTGGCTTGGGTTCTAACCTGTTGCCT (site ACACTGGCTAG)", 0.987],
  ["CTCCGCCCTTGGGTTCTAACCTGTTGCTT (site CTCCGGCCTAA)", 0.106],
  ["CTCTCGTCTTGGGTTCTAACCTGTTGCCT (site CTCTCGTCTAC)", 0.119]
]}

Query: recombinant barcode read abundance (log10); subject: GAGCCGCCTTGGGTTCTAACCTGTTGCCG (site GAGCCGCCTCG) 1.04

Query: recombinant barcode read abundance (log10); subject: GGGGCTTCTTGGGTTCTAACCTGTTGCCT (site GAGGCTTCTAG) 0.0126

Query: recombinant barcode read abundance (log10); subject: GTATGCCCTTGGGTTCTAACCTGTTGCTA (site GTATGCCCTTA) 1.12

Query: recombinant barcode read abundance (log10); subject: TGCGTCCCTTGGGTTCTAACCTGTTGCCT (site TGCGTCCCTAG) 0.291

Query: recombinant barcode read abundance (log10); subject: CGCTGATCTTGGGTTCTAACCTGTTGCCT (site CGCTGATCTAG) 0.0169

Query: recombinant barcode read abundance (log10); subject: CCGATATCTTGGGTTCTAACCTGTTGCCT (site CCGCTATCTAG) 0.707

Query: recombinant barcode read abundance (log10); subject: TGTTCCTCTTGGGTTCTAACCTGTTGCCT (site TGTACCTCTAG) 0.143

Query: recombinant barcode read abundance (log10); subject: TCTAGACCTTGGGTTCTAACCTGTTGCCT (site TCTAGAGCTAG) 0.139

Query: recombinant barcode read abundance (log10); subject: GTCAATTCTTGGGTTCTAACCTGTTGCCT (site GACACTTCTAG) 0.109

Query: recombinant barcode read abundance (log10); subject: CTATGACCTTGGGTTCTAACCTGTTGCAT (site CTATGACCTAT) 0.568

Query: recombinant barcode read abundance (log10); subject: TGGCGTCCTTGGGTTCTAACCTGTTGCCT (site TGGGGTCCTAG) 0.0381

Query: recombinant barcode read abundance (log10); subject: GTGGTAACTTGGGTTCTAACCTGTTGCCT (site GTGGTACCTAG) 0.19

Query: recombinant barcode read abundance (log10); subject: ACTGTCACTTGGGTTCTAACCTGTTGCGG (site GTGTATTCTAG) 0.046

Query: recombinant barcode read abundance (log10); subject: CTTTGCCCTTGGGTTCTAACCTGTTGCCT (site CATTGCCCTAG) 0.179
